Values compiled from ChEMBL document CHEMBL1136094.

TARGET_ENTITY: Cyclin-dependent kinase 4/cyclin D1 (Homo sapiens)
Sequence (P11802 whole entry): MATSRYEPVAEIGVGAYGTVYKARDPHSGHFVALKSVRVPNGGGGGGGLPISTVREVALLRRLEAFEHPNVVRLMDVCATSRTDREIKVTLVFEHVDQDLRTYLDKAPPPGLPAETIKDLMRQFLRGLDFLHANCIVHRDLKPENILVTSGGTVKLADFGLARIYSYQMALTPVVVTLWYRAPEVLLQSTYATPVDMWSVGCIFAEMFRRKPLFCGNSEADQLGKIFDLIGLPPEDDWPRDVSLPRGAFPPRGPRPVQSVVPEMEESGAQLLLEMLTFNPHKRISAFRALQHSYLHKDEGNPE
Sequence (P24385 whole entry, further chain): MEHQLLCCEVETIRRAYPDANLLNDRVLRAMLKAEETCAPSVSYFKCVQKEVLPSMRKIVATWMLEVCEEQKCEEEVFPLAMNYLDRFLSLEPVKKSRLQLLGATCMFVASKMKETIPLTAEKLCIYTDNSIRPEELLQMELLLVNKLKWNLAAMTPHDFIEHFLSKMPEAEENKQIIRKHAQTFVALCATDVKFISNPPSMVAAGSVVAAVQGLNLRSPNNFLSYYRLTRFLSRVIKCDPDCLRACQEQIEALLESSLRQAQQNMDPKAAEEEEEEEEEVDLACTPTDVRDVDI
ASSAY_COMMENT: Inhibitory activity against Cyclin D1-cyclin-dependent kinase 4 in enzymatic assay by measuring phosphorylation of RbING
Assay type: protein-complex assay
ENDPOINT: IC50 (nM)
Answers are plain numbers, in nM.

Field: example entries. Status: answers known.
COc1ccc2c(c1)[nH]c1c3ccc4cc[nH]c4c3c3c(c21)C(=O)NC3=O : 67
Cn1ccc2ccc3c4[nH]c5c(Br)cccc5c4c4c(c3c21)C(=O)NC4=O : 93
Cn1ccc2cc(F)c3c(c4c(c5c6ccccc6n(CCCO)c53)C(=O)NC4=O)c21 : 346
Cn1ccc2ccc3c4[nH]c5ccc(F)cc5c4c4c(c3c21)C(=O)NC4=O : 84
Cc1cc2ccn(C)c2c2c3c(c4c5ccc(F)cc5[nH]c4c12)C(=O)NC3=O : 50
Cn1ccc2ccc3c4[nH]c5c(CCCN6CCOCC6)cccc5c4c4c(c3c21)C(=O)NC4=O : 56
COc1ccc2c3c4c(c5c(ccc6ccn(C)c65)c3n(CCN3CCC[C@H]3CO)c2c1)C(=O)NC4=O : 84
Cn1ccc2ccc3c4[nH]c5c(CCN6CCC(C(N)=O)CC6)cccc5c4c4c(c3c21)C(=O)NC4=O : 51
COc1ccc2c(c1)[nH]c1c2c2c(c3c1c(C)cc1ccn(C)c13)C(=O)NC2=O : 42
COc1ccc2c3c4c(c5c(ccc6ccn(C)c65)c3n(CCN[C@H]3CC[C@H](O)CC3)c2c1)C(=O)NC4=O : 63

Quick batch: IC50 for everything below.
1. COc1ccc2c3c4c(c5c(ccc6ccn(C)c65)c3n(CCCN3CCSCC3)c2c1)C(=O)NC4=O
2. Cn1ccc2ccc3c4[nH]c5cc(Br)ccc5c4c4c(c3c21)C(=O)NC4=O
3. COc1ccc2c(c1)[nH]c1c3ccc4ccn(C)c4c3c3c(c21)C(=O)NC3=O
4. Cc1cc2ccn(C)c2c2c3c(c4c5ccccc5n(C)c4c12)C(=O)NC3=O

Response:
1: 190; 2: 38; 3: 53; 4: 92

// for each molecule in input: emit IC50
1. COc1cccc2c1[nH]c1c3ccc4ccn(C)c4c3c3c(c21)C(=O)NC3=O
2. Cn1ccc2ccc3c4[nH]c5c(CCN6CCC[C@H]6CO)cccc5c4c4c(c3c21)C(=O)NC4=O
3. Cn1ccc2ccc3c4[nH]c5c(CCCNCCO)cccc5c4c4c(c3c21)C(=O)NC4=O

Response:
[62, 39, 40]

Count: 2. Required value per item: IC50.
1. COc1ccc2[nH]c3c4ccc5ccn(C)c5c4c4c(c3c2c1)C(=O)NC4=O
2. Cn1ccc2ccc3c(c4c(c5c6ccccc6n(CCCO)c35)C(=O)NC4=O)c21

Response:
519
96
